These entries and their values trace back to ChEMBL document CHEMBL3885861.

Species on record: Rattus norvegicus
measurement.description: Open TG-GATES - Regimen: Single
Format: toxicity, organism-based, Sprague-Dawley
Set-up: regimen Single, gender Male, age 6 weeks
experimental.context: in vivo, po, 0 mg/kg, 6 h, tissue Plasma, route gavage, dose level Control
reported.metric: GLC (mg/dL)

In [3]: df
Out[3]:
                                   compound  result
0  CC(=O)Nc1nnc(S(N)(=O)=O)s1 [ACETAZOLAMIDE]   186.6
1  CC(CN1c2ccccc2Sc2ccccc21)N(C)C (centres undefined) [PROMETHAZINE]   186.2
2  C1CCC(C(CC2CCCCN2)C2CCCCC2)CC1 (centres undefined) [PERHEXILINE]   178.8
3  Clc1c(Cl)c(Cl)c(Cl)c(Cl)c1Cl [PERCHLOROBENZENE]   192.8
4  CN1C(C(=O)Nc2ccccn2)=C(O)c2sc(Cl)cc2S1(=O)=O [LORNOXICAM]   196.8
5  Cc1cccc(Nc2ccccc2C(=O)O)c1C [MEFENAMIC ACID]   183.4
6  C#C[C@]1(O)CC[C@H]2[C@@H]3CCC4=Cc5oncc5C[C@]4(C)[C@H]3CC[C@@]21C [DANAZOL]     182
7  CN(C)[C@@H]1C(O)=C(C(N)=O)C(=O)[C@@]2(O)C(O)=C3C(=O)c4c(O)cccc4[C@@](C)(O)[C@H]3C[C@@H]12 [TETRACYCLINE]     180
8  CCOC(=O)[C@H](CCc1ccccc1)N[C@@H](C)C(=O)N1CCC[C@H]1C(=O)O   198.6
